Every entry's value here was drawn from ChEMBL document CHEMBL4507327.

Tested On: Serine/threonine-protein kinase TAO3 (Homo sapiens, UniProt Q9H2K8)
Sequence (Q9H2K8 whole entry): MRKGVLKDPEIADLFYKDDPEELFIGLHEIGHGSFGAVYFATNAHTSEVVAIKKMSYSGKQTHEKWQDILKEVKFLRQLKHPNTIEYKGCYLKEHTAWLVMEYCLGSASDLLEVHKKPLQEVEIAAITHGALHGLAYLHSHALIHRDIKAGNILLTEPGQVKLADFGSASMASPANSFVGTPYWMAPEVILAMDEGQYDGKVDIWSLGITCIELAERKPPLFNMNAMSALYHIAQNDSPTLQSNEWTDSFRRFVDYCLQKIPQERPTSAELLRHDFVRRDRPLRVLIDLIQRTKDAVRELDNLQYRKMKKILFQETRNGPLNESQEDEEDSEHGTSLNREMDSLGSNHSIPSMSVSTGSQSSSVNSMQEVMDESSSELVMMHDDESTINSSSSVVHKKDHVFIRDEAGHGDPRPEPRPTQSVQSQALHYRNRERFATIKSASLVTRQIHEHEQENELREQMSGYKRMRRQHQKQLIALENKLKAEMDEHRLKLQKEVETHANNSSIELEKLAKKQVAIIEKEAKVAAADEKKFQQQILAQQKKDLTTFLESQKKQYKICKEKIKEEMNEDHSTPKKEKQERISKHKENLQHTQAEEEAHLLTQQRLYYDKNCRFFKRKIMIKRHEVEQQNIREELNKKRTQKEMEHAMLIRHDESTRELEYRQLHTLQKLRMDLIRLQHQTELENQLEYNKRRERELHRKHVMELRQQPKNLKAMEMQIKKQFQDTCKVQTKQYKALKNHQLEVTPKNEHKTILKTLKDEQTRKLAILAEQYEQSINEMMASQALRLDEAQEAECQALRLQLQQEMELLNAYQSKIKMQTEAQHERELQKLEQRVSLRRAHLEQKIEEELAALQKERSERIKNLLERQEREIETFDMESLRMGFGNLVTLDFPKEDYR
Assay Explanation: TAO3(TAO3LGY1) Takeda global kinase panel
Quantity Measured: pIC50
Lab note — pIC50 values are minus log10 of concentrations in M.

> print(dat)
                                   compound  quantity.measured  result.value
1  CN1C(=O)[C@@H](N2CCc3cn(CC4CCS(=O)(=O)CC4)nc3C2=O)COc2ccccc21 [TP-030n]              pIC50          6.00

Would you kindly look at the next entry?
Short answer please: pIC50, Serine/threonine-protein kinase TAO3 (Homo sapiens, UniProt Q9H2K8), entry CN1C(=O)[C@@H](N2CCc3cn(Cc4ccccc4)nc3C2=O)COc2ccccc21
6.00
